Target: TGFBR2 (human) (UniProt P37173)
Sequence (P37173 whole entry, looked up): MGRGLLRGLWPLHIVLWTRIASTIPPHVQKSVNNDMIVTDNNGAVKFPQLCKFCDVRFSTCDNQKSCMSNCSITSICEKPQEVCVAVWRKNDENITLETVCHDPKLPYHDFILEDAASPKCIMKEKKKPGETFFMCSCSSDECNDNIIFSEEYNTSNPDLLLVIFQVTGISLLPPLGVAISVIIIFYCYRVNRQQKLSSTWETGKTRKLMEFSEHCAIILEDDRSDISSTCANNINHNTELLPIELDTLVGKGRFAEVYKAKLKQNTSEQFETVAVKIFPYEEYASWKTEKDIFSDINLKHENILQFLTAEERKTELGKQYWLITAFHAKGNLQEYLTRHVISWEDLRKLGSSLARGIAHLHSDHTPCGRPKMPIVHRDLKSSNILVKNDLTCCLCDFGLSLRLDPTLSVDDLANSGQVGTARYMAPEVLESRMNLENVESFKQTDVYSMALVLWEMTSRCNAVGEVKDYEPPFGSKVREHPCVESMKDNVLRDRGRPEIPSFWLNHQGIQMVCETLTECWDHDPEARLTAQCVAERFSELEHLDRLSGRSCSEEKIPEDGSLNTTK
Assay: radiometric filter-binding kinase assay, Kinase HotSpot
Conditions: compound 0.5 µM; ATP 10 µM
Quantity Kind: residual activity (%)

chem_smiles=CC[n+]1c(/C=C/N(C)c2ccccc2)n(-c2ccccc2)c2ccc(-c3nc4ccccc4s3)cc21 assayed_system="TGFBR2 (human) (UniProt P37173)" quantity_kind="residual activity" value_observed=95.1
chem_smiles=CCN(CC)C(=O)c1ccc(Nc2nc(OCC3CCCCC3)c3nc[nH]c3n2)cc1 assayed_system="TGFBR2 (human) (UniProt P37173)" quantity_kind="residual activity" value_observed=75.4
chem_smiles=Cc1[nH]c(/C=C2\C(=O)Nc3ccc(S(=O)(=O)N(C)c4cccc(Cl)c4)cc32)c(C)c1C(=O)N1CCN(C)CC1 assayed_system="TGFBR2 (human) (UniProt P37173)" quantity_kind="residual activity" value_observed=127
chem_smiles=O=C(Nc1cccc(Nc2nccc(Nc3cccc(C(F)(F)F)c3)n2)c1)C1CC1 assayed_system="TGFBR2 (human) (UniProt P37173)" quantity_kind="residual activity" value_observed=91.6
chem_smiles=CCCC(=O)Oc1ccc2[nH]c(C(=O)c3cc4ccccc4[nH]3)cc2c1 assayed_system="TGFBR2 (human) (UniProt P37173)" quantity_kind="residual activity" value_observed=101
chem_smiles=CC(C)N(CCC(=O)c1ccc2ccccc2c1)Cc1ccccc1 assayed_system="TGFBR2 (human) (UniProt P37173)" quantity_kind="residual activity" value_observed=98.8
chem_smiles=CCOC(=O)c1c(C)[nH]c(/C=C2\C(=O)Nc3ccccc32)c1C assayed_system="TGFBR2 (human) (UniProt P37173)" quantity_kind="residual activity" value_observed=101
chem_smiles=CCN(CC)CCNC(=O)c1c(C)[nH]c(/C=C2\C(=O)Nc3ccc(Cl)cc32)c1C assayed_system="TGFBR2 (human) (UniProt P37173)" quantity_kind="residual activity" value_observed=113
chem_smiles=O=C1NC(=O)c2c1c1c3ccccc3n3c1c1c2c2ccccc2n1C1CCC3O1 assayed_system="TGFBR2 (human) (UniProt P37173)" quantity_kind="residual activity" value_observed=70.3
chem_smiles=N#CC(C#N)=C(N)/C(C#N)=C/c1ccc(O)cc1 assayed_system="TGFBR2 (human) (UniProt P37173)" quantity_kind="residual activity" value_observed=113

###

Target: PDGFRB (human) (UniProt P09619)
Sequence (P09619 whole entry, looked up): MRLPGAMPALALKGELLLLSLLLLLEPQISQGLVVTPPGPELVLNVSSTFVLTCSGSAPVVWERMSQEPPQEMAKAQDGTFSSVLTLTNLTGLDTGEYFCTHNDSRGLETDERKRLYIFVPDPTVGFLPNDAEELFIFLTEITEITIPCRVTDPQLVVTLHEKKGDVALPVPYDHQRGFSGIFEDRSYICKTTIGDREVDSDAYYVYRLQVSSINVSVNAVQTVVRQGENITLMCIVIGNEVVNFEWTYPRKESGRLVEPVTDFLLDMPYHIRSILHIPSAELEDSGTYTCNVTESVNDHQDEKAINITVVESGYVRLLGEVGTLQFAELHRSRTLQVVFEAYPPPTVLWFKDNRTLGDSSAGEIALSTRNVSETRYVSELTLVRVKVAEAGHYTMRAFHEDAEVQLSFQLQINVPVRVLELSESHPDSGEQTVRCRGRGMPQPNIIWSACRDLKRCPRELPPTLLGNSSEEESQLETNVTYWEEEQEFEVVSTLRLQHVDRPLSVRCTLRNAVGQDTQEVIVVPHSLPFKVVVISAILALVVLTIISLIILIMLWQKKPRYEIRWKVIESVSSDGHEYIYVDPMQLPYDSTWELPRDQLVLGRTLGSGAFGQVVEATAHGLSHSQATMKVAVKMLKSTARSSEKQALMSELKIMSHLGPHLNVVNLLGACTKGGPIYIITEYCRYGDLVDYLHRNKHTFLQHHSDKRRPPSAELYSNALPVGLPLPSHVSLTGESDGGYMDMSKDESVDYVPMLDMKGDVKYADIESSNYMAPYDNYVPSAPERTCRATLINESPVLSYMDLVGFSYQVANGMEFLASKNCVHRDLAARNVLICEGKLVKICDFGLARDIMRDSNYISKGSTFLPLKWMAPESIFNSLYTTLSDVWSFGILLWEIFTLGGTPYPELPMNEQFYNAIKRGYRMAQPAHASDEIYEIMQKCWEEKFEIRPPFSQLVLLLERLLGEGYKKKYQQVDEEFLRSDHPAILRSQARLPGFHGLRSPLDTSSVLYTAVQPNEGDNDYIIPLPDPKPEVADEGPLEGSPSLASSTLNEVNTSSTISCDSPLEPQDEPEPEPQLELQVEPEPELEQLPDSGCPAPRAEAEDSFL
Test: radiometric filter-binding kinase assay, Kinase HotSpot
Settings: compound 0.5 µM; ATP 10 µM
// assign met if residual activity falls strictly below 90%, else not met (ties count as not met)

compound=Nc1ncnc2[nH]nc(Nc3ccc(F)cc3)c12 label_value="not met"
compound=Nc1ccc2ncnc(NCCc3ccc(Oc4ccccc4)cc3)c2c1 label_value="not met"
compound=N#C/C(=C(/N)Sc1ccc(N)cc1)c1ccccc1C(F)(F)F label_value="not met"
compound=O=c1cc(N2CCOCC2)oc2c1ccc1ccccc12 label_value="not met"
compound=O=S(=O)(c1cccc2cnccc12)N1CCCNCC1 label_value="not met"
compound=CC(=O)c1ccc(N2CCOCC2)cc1O label_value="not met"
compound=O=C1NC(=O)/C(=C/c2ccc3c(c2)OC(F)(F)O3)S1 label_value="not met"
compound=CCOC(=O)c1c(C)[nH]c(/C=C2\C(=O)Nc3ccccc32)c1C label_value=met
compound=CC[n+]1c(/C=C/N(C)c2ccccc2)n(-c2ccccc2)c2ccc(-c3nc4ccccc4s3)cc21 label_value="not met"
compound=Cc1[nH]c(/C=C2\C(=O)Nc3ccc(S(=O)(=O)N(C)c4cccc(Cl)c4)cc32)c(C)c1C(=O)N1CCN(C)CC1 label_value=met
compound=O=C(Nc1cccc(Nc2nccc(Nc3cccc(C(F)(F)F)c3)n2)c1)C1CC1 label_value="not met"
compound=CC#CC(=O)Nc1cc2c(Nc3ccc(F)c(Cl)c3)ncnc2cn1 label_value="not met"
compound="CO[C@H]1CC2CC[C@@H](C)[C@@](O)(O2)C(=O)C(=O)N2CCCC[C@H]2C(=O)OC([C@H](C)C[C@@H]2CC[C@@H](O)[C@H](OC)C2)CC(=O)[C@H](C)/C=C(\\C)[C@@H](O)[C@@H](OC)C(=O)[C@H](C)C[C@H](C)/C=C/C=C/C=C/1C (some centres undefined)" label_value="not met"
compound=O=C1NC(=O)C(c2cn(CCCn3ccnc3)c3ccccc23)=C1Nc1ccccc1 label_value=met
compound=CCN(CC)C(=O)c1ccc(Nc2nc(OCC3CCCCC3)c3nc[nH]c3n2)cc1 label_value=met
compound=CCN(CC)CCNC(=O)c1c(C)[nH]c(/C=C2\C(=O)Nc3ccc(Cl)cc32)c1C label_value=met
compound=CNc1cc2c(Nc3cccc(Br)c3)ncnc2cn1 label_value=met
compound=COc1ccc2c(c[n+](C)c3c4cc5c(cc4ccc23)OCO5)c1OC label_value="not met"
compound=c1ccc(-c2n[nH]cc2-c2ccnc3ccccc23)nc1 label_value="not met"
compound=O=C1NC(=O)c2c1c1c3ccccc3n3c1c1c2c2ccccc2n1C1CCC3O1 label_value=met
compound=Cc1ccc(NC2=CC(=O)c3sc(C)nc3C2=O)cc1 label_value="not met"
compound=CCN(CC)CCNC(=O)c1c(C)[nH]c(/C=C2\C(=O)Nc3ccc(F)cc32)c1C label_value=met
compound=Cc1ccc(S(=O)(=O)/C=C/C#N)cc1 label_value="not met"
compound=Oc1cccc(-c2nc(N3CCOCC3)c3oc4ncccc4c3n2)c1 label_value="not met"
compound=CCC(=O)Nc1ccc2ncnc(Nc3cccc(Br)c3)c2c1 label_value="not met"
compound=Nc1ncnc2c1c(-c1ccc(Oc3ccccc3)cc1)cn2C1CCCC1 label_value=met
compound=N#CC(C#N)=C(N)/C(C#N)=C/c1ccc(O)cc1 label_value="not met"
compound=CNC(=O)c1cc(Oc2ccc(NC(=O)Nc3ccc(Cl)c(C(F)(F)F)c3)cc2)ccn1 label_value=met
compound=O=C1Nc2ccc(Cl)cc2/C1=C/c1cc(Cl)c(O)c(Cl)c1 label_value=met
compound=COc1cc2ncnc(Nc3cccc(Cl)c3)c2cc1OC label_value="not met"
compound=COc1ccc(COc2ccc(Cc3cnc(N)nc3N)cc2OC)cc1 label_value="not met"
compound=Cc1ccc(Nc2nccc(N(C)c3ccc4c(C)n(C)nc4c3)n2)cc1S(N)(=O)=O label_value=met
compound=Nc1cccc(-c2cc3c(Oc4cccc(O)c4)ncnc3[nH]2)c1 label_value=met

###

Target: FGFR4 (human) (UniProt P22455)
Sequence (P22455 whole entry, looked up): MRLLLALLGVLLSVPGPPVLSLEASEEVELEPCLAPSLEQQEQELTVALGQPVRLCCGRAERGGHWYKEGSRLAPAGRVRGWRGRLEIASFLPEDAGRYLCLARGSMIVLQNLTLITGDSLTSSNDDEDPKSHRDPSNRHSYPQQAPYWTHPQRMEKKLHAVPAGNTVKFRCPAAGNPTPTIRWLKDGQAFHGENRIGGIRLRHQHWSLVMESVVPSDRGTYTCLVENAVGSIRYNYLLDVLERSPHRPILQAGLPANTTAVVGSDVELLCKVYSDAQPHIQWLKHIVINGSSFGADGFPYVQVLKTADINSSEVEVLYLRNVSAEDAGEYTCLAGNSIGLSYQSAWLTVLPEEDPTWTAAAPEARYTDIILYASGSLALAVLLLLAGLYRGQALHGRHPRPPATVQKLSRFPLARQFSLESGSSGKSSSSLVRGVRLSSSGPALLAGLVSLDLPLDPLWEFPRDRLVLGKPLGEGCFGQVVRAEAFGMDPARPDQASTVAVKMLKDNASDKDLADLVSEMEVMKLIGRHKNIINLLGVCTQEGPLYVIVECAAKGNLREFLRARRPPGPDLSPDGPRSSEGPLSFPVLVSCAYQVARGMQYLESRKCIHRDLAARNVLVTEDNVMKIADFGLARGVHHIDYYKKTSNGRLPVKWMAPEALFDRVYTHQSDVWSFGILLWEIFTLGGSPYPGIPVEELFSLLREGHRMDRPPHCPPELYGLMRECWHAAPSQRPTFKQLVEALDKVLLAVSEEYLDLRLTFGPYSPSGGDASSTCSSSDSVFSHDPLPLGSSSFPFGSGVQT
Assay: radiometric filter-binding kinase assay, Kinase HotSpot
Conditions: compound 0.5 µM; ATP 10 µM
// assign T if residual activity falls strictly below 90%, else F (ties count as F)

chem_smiles=Cc1[nH]c(/C=C2\C(=O)Nc3ccc(S(=O)(=O)N(C)c4cccc(Cl)c4)cc32)c(C)c1C(=O)N1CCN(C)CC1 label_value=F
chem_smiles=c1ccc(-c2n[nH]c3c2oc2ccccc23)cc1 label_value=T
chem_smiles=O=S(=O)(c1cccc2cnccc12)N1CCCNCC1 label_value=T
chem_smiles=CNc1cc2c(Nc3cccc(Br)c3)ncnc2cn1 label_value=F
chem_smiles=O=C1NC(=O)c2c1c1c3ccccc3n3c1c1c2c2ccccc2n1C1CCC3O1 label_value=T
chem_smiles=N#C/C(=C(/N)Sc1ccc(N)cc1)c1ccccc1C(F)(F)F label_value=F
chem_smiles=O=C1NC(=O)C(c2cn(CCCn3ccnc3)c3ccccc23)=C1Nc1ccccc1 label_value=T
chem_smiles=CC(=O)c1ccc(N2CCOCC2)cc1O label_value=F

###

Biological target: TSSK1B (human)
Test: radiometric filter-binding kinase assay, Kinase HotSpot
Settings: compound 0.5 µM; ATP 10 µM
Quantity Kind: residual activity (%)

chem_smiles=CC#CC(=O)Nc1cc2c(Nc3ccc(F)c(Cl)c3)ncnc2cn1 assayed_system="TSSK1B (human)" value_observed=104
chem_smiles=c1ccc(-c2n[nH]c3c2oc2ccccc23)cc1 assayed_system="TSSK1B (human)" value_observed=97.2
chem_smiles=O=C1NC(=O)C(c2cn(CCCn3ccnc3)c3ccccc23)=C1Nc1ccccc1 assayed_system="TSSK1B (human)" value_observed=102
chem_smiles=Oc1cccc(-c2nc(N3CCOCC3)c3oc4ncccc4c3n2)c1 assayed_system="TSSK1B (human)" value_observed=93.4
chem_smiles=Nc1cccc(-c2cc3c(Oc4cccc(O)c4)ncnc3[nH]2)c1 assayed_system="TSSK1B (human)" value_observed=91.1
chem_smiles=CCOC(=O)c1c(C)[nH]c(/C=C2\C(=O)Nc3ccccc32)c1C assayed_system="TSSK1B (human)" value_observed=91.2
chem_smiles=O=S(=O)(c1cccc2cnccc12)N1CCCNCC1 assayed_system="TSSK1B (human)" value_observed=93.5
chem_smiles=CC(=O)c1ccc(N2CCOCC2)cc1O assayed_system="TSSK1B (human)" value_observed=107
chem_smiles=O=C1Nc2ccc(Cl)cc2/C1=C/c1cc(Cl)c(O)c(Cl)c1 assayed_system="TSSK1B (human)" value_observed=88.2
chem_smiles=CCN(CC)CCNC(=O)c1c(C)[nH]c(/C=C2\C(=O)Nc3ccc(F)cc32)c1C assayed_system="TSSK1B (human)" value_observed=20.7
chem_smiles=N#CC(C#N)=C(N)/C(C#N)=C/c1ccc(O)cc1 assayed_system="TSSK1B (human)" value_observed=111

These measurements were taken from the kinase profiling compilation of Christmann-Franck et al. (2016).
